Test system: SH-SY5Y cells overexpressing unlabeled wild-type (WT) αSN
Assay: CytoTox-Glo cytotoxicity assay: rescue of αSN-induced cytotoxicity
Assay type: cell-based, human
Conditions: Homo sapiens, SH-SY5Y, 72-h transfection, 48-h exposure to compound; seven-point CRC; read-out: IC50, inhibition of αSN-induced toxicity
Where a name gives a salt, the structure may show the parent alone.
Parameter: IC50 (nM)

INSERT INTO measurements (compound, parameter, value_measured) VALUES
  ('CN(C)[C@@H]1C(O)=C(C(N)=O)C(=O)[C@@]2(O)C(O)=C3C(=O)c4c(O)ccc(Cl)c4[C@@H](O)[C@H]3C[C@@H]12 [DEM, Demeclocycline HCl]', 'IC50', 65);

====

Target: A53T αSN oligomer (inter-protomeric) FRET biosensor in HEK293 cells (Homo sapiens, UniProt P37840, A53T)
Construct: In addition to full-length αSN fusion constructs, we observe both C-terminally and N-terminally truncated αSN species; expressed in transfected cells; host or cells: HEK293
Experiment: FLT dose response, A53T oligomer (inter-protomeric) FRET biosensor
Type: cell-based
Settings: 1 nM to 50 μM
Description: Hits from the pilot HTS of the LOPAC library were selected and dispensed into 384-well plates to verify reproducible and specific FLT trends using the WT and A53T oligomer (inter-protomeric) FRET biosensors. […] Assay quality was determined by Z′ (Eq. 2) where a Z′ > 0.5 indicates good assay quality. Using EGCG as control compound and the hit DEM, we calculated Z′ value of 0.76 and 0.66, respectively, indicating excellent assay quality. […]
Counter-ions that a name gives are not always drawn.
Parameter: FLT trend in dose response

INSERT INTO results (compound, parameter, value_measured) VALUES
  ('COC(=O)C1=C(C)NC(C)=C([N+](=O)[O-])C1c1ccccc1C(F)(F)F (racemic) [BAY, (±)-Bay K 8644]', 'FLT trend in dose response', 'reduced FLT'),
  ('Nc1ccc(-c2nc3ccc(-c4nc5ccc(N)cc5[nH]4)cc3[nH]2)cc1 [RO, Ro 90–7501]', 'FLT trend in dose response', 'reduced FLT'),
  ('CN(C)[C@@H]1C(O)=C(C(N)=O)C(=O)[C@@]2(O)C(O)=C3C(=O)c4c(O)ccc(Cl)c4[C@@H](O)[C@H]3C[C@@H]12 [DEM, Demeclocycline HCl]', 'FLT trend in dose response', 'reduced FLT');
